# experimental.system: CDK2 cyA (Homo sapiens)
# method.summary: CDK2 cyA IMAP
# Assay type: biochemical
# experimental.setup: Table 1; read-out: CDK2 cyA IMAP
pIC50: −log10 of the molar value.
property.label: pIC50

Sample answers from the record:
The reported pIC50 of the molecule Cc1ccc(CNc2cc(-c3cn[nH]c3C(C)C)ccn2)cc1 [Example 28] was > 5.30

The reported pIC50 of the molecule CCC(CC)c1[nH]ncc1-c1ccnc(NCc2ccccc2C)c1 [Example 71] was > 5.30

The reported pIC50 of the molecule CC(C)c1[nH]ncc1-c1ccnc(NCc2ccncc2)c1 [Example 22] was > 5.30

The reported pIC50 of the molecule Cc1cccc(CNc2cc(-c3cn[nH]c3C3CCCC3)ccn2)c1 [Example 62] was > 5.30

The reported pIC50 of the molecule CC(C)c1[nH]ncc1-c1ccnc(NC2CCCCC2)c1 [Example 7] was > 6.30

The reported pIC50 of the molecule CC(C)c1[nH]ncc1-c1ccnc(NC(C)c2ccccc2)c1 (stereo not drawn) [Example 27] was > 5.30

The reported pIC50 of the molecule CC(C)c1[nH]ncc1-c1ccnc(NCCC2CCCN2C)c1 (stereo not drawn) [Example 42] was ≤ 4.82

The reported pIC50 of the molecule CC(C)c1[nH]ncc1-c1ccnc(NC2CCC2)c1 [Example 2] was > 6.30

The reported pIC50 of the molecule CCC(CC)c1[nH]ncc1-c1ccnc(NC2CCN(C)CC2)c1 [Example 73] was > 5.00

The reported pIC50 of the molecule CC(C)c1[nH]ncc1-c1ccnc(NCCCN2CCCC2)c1 [Example 19] was ≤ 4.82

Further cases:
The reported pIC50 of the molecule CC(C)c1[nH]ncc1-c1ccnc(NCCCN(C)C)c1 [Example 16] was ≤ 4.82

The reported pIC50 of the molecule CC(C)c1[nH]ncc1-c1ccnc(NCCc2ccccn2)c1 [Example 29] was > 5.30

The reported pIC50 of the molecule Cc1cccc(CNc2cc(-c3cn[nH]c3C(C)C)ccn2)c1 [Example 49] was > 5.30

The reported pIC50 of the molecule CC(C)c1[nH]ncc1-c1ccnc(NCCc2cccnc2)c1 [Example 15] was > 5.30

The reported pIC50 of the molecule CC(C)c1[nH]ncc1-c1ccnc(NCCCO)c1 [Example 23] was > 5.30

* * *

# key: entry, value: IC50
# experimental.system: UniProt P11802
# method.summary: CDK4 HTRF
# Assay type: biochemical
# experimental.setup: Table 2; read-out: CDK4 HTRF/ IC50

Record Cc1ccc(CNc2nccc(-c3c[nH]nc3C)n2)cc1 [Example 117] has UniProt P11802 IC50 equal to < 10000 nM

Record Cc1nnc(C(C)Nc2nccc(-c3c[nH]nc3C(C)C)n2)[nH]1 (stereo not shown) [Example 162] has UniProt P11802 IC50 equal to < 500 nM

Record Cc1n[nH]cc1-c1ccnc(NC2CCCC2)n1 [Example 86] has UniProt P11802 IC50 equal to < 1000 nM

Record CC(C)c1nn(C)cc1-c1ccnc(NC2CCN(C)CC2)n1 [Example 181] has UniProt P11802 IC50 equal to < 500 nM

* * *

# experimental.system: CDK4 (Homo sapiens)
# Sequence (P11802 whole entry): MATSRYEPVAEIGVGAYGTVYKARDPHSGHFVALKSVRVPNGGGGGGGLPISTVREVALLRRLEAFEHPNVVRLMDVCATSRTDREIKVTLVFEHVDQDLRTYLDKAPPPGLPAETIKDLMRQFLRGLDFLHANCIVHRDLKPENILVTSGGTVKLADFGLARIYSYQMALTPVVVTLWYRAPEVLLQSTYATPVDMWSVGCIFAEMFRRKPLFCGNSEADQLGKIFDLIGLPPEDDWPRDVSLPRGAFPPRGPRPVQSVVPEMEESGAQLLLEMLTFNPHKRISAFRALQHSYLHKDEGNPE
# Sequence (P24385 whole entry partner): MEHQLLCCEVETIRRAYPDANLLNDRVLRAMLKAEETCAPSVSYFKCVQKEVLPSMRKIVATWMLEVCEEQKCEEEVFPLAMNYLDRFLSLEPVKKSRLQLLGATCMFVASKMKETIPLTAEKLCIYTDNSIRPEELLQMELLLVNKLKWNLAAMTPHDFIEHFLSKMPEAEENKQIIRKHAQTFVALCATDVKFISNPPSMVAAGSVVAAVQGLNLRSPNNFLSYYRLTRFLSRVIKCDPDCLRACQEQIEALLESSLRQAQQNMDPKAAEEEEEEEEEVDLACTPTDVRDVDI
# method.summary: CDK4 HTRF
# Type: biochemical
# experimental.setup: Table 1; read-out: CDK4 HTRF
property.label: IC50

Sample answers from the record:
The reported IC50 of the compound CCC(CC)c1[nH]ncc1-c1ccnc(NC2CCN(C)CC2)c1 was < 1000 nM

The reported IC50 of the compound CC(C)c1[nH]ncc1-c1ccnc(NC2CCN(Cc3ccccc3)CC2)c1 was < 500 nM

The reported IC50 of the compound CC(C)c1[nH]ncc1-c1ccnc(NCC2CCCO2)c1 (centres unmarked) was < 5000 nM

The reported IC50 of the compound CCC(CC)c1[nH]ncc1-c1ccnc(NC2CCN(C(=O)OC(C)(C)C)CC2)c1 was < 1000 nM

In the following, a different compound is considered.
The reported IC50 of the compound CC(C)c1[nH]ncc1-c1ccnc(NCc2ccccc2C(F)(F)F)c1 was < 1000 nM
